This collection of values is drawn from ChEMBL document CHEMBL2176934.

Target: Voltage-gated inwardly rectifying potassium channel KCNH2 (Homo sapiens, UniProt Q12809)
Sequence (Q12809 whole entry): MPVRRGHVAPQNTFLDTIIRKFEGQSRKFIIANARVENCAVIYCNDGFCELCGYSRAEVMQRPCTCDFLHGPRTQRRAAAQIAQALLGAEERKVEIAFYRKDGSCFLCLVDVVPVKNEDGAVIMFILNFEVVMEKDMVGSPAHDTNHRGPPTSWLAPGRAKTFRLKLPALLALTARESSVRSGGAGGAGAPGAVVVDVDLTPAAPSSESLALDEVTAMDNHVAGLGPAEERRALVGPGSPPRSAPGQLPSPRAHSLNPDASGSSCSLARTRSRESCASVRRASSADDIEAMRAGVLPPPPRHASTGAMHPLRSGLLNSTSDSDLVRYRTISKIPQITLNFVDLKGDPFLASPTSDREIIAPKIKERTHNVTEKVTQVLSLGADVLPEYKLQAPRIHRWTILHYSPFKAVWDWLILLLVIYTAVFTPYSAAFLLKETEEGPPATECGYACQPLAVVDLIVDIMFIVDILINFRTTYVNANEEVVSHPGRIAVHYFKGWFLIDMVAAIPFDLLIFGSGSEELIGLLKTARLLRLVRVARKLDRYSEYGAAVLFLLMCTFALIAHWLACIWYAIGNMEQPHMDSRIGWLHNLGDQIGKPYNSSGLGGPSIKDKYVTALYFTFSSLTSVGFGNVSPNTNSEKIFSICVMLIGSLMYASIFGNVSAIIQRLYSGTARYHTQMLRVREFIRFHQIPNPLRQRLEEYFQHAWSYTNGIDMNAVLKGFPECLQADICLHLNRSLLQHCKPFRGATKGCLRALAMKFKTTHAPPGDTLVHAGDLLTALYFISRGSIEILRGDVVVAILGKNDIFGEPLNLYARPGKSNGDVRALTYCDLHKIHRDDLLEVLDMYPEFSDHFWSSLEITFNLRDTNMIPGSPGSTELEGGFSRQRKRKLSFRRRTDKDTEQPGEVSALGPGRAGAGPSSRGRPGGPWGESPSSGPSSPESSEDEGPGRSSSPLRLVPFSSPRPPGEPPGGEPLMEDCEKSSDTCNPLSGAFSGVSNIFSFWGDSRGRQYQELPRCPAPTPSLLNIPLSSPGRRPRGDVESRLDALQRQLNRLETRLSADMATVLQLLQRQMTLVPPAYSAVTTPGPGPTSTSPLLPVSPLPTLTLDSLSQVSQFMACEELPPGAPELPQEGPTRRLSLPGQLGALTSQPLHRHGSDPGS
Assay: Inhibition of human ERG
metric_name: inhibition (INH)

[[record]]
compound = "CCOC(=O)C1(c2ccc(-c3ccc(-c4cnn(C)c4NC(=O)O[C@H](C)c4ccccc4)cc3)cc2)CC1"
metric_name = "inhibition (INH)"
result = "Not Active"

[[record]]
compound = "Cc1nnn(-c2ccc(-c3ccc(C4(C(=O)O)CC4)cc3)cc2)c1NC(=O)O[C@H](C)c1cccc(C(F)(F)F)c1"
metric_name = "inhibition (INH)"
result = "Not Active"

[[record]]
compound = "Cn1ncc(-c2ccc(-c3ccc(C4(C(=O)O)CC4)cc3)cc2)c1NC(=O)OC1COC1"
metric_name = "inhibition (INH)"
result = "Not Active"

[[record]]
compound = "CC[C@@H](C)OC(=O)Nc1c(C)nnn1-c1ccc(-c2ccc(C3(C(=O)O)CC3)cc2)cc1"
metric_name = "inhibition (INH)"
result = "Not Active"

[[record]]
compound = "Cc1nnn(-c2ccc(-c3ccc(C4(C(=O)O)CC4)cc3)cc2)c1NC(=O)O[C@H](C)C(C)C"
metric_name = "inhibition (INH)"
result = "Not Active"

[[record]]
compound = "CC(OC(=O)Nc1c(-c2ccc(F)cc2)cnn1C)c1ccccc1Cl (racemic)"
metric_name = "inhibition (INH)"
result = "Not Active"

[[record]]
compound = "C[C@@H](OC(=O)Nc1c(-c2ccccc2)cnn1C)c1ccccc1"
metric_name = "inhibition (INH)"
result = "Not Active"

[[record]]
compound = "COc1ccc(-c2cnn(C)c2NC(=O)O[C@H](C)c2ccccc2)cc1"
metric_name = "inhibition (INH)"
result = "Not Active"

[[record]]
compound = "Cc1nnn(-c2ccc(-c3ccc(C4(C(=O)O)CC4)cc3)cc2)c1NC(=O)OC(C)(C)C"
metric_name = "inhibition (INH)"
result = "Not Active"

